Source listed as patent US8426408B2.

Quick note: these are pKi numbers for system: KDR (Homo sapiens, UniProt P35968)
pKi: −log10 of the molar value.

Check out these entries, answers already filled in.
CC(C)OC(=O)Cn1cc(Nc2ncc(Br)c(N[C@@H]3[C@H](C(N)=O)[C@H]4C=C[C@@H]3C4)n2)cn1.CC(C)OC(=O)Cn1cc(Nc2ncc(Br)c(N[C@H]3[C@@H](C(N)=O)[C@@H]4C=C[C@H]3C4)n2)cn1 (mixture of isomers) [Example 55] ... > 7.00
CN(C)C(=O)Cn1cc(Nc2ncc(Cl)c(N[C@@H]3[C@H](C(N)=O)[C@H]4C=C[C@@H]3C4)n2)cn1.CN(C)C(=O)Cn1cc(Nc2ncc(Cl)c(N[C@H]3[C@@H](C(N)=O)[C@@H]4C=C[C@H]3C4)n2)cn1 (mixture of isomers) [Example 54] ... > 7.00
NC(=O)[C@@H]1[C@H](Nc2nc(Nc3cnn(CCN4CCCC4)c3)ncc2F)[C@H]2C=C[C@@H]1C2.NC(=O)[C@H]1[C@@H](Nc2nc(Nc3cnn(CCN4CCCC4)c3)ncc2F)[C@@H]2C=C[C@H]1C2 (mixture of isomers) [Example 45] ... > 7.00
Cn1cc(Nc2ncc(Cl)c(N[C@@H]3[C@H](C(N)=O)[C@H]4CC[C@@H]3O4)n2)cn1.Cn1cc(Nc2ncc(Cl)c(N[C@H]3[C@@H](C(N)=O)[C@@H]4CC[C@H]3O4)n2)cn1 (mixture of isomers) [Example 141] ... > 7.00
CN1CCN(CCn2cc(Nc3ncc(Cl)c(N[C@@H]4[C@H]5CC[C@H](C5)[C@@H]4C(N)=O)n3)cn2)CC1 [Example 90] ... > 7.00
Cn1cc(Nc2nccc(NC3C4C=CC(C4)C3C(N)=O)n2)cn1 (mixture of isomers) [Example 2] ... < 5.30
Cn1cc(Nc2ncc(Cl)c(N[C@@H]3CC[C@@H]3C(N)=O)n2)cn1.Cn1cc(Nc2ncc(Cl)c(N[C@H]3CC[C@H]3C(N)=O)n2)cn1 (mixture of isomers) [Example 151] ... > 7.00
NC(=O)[C@@H]1[C@H](Nc2nc(Nc3cnn([C@@H]4CCOC4)c3)ncc2Cl)[C@H]2C=C[C@@H]1C2 [Example 107] ... > 7.00

Task: Fill in pKi for record CCn1cc(Nc2ncc(Cl)c(N[C@@H]3[C@H]4CC[C@H](C4)[C@@H]3C(N)=O)n2)cn1.CCn1cc(Nc2ncc(Cl)c(N[C@H]3[C@@H]4CC[C@@H](C4)[C@H]3C(N)=O)n2)cn1 (mixture of isomers) [Example 57]
Result: > 7.00

Task: Fill in pKi for record NC(=O)[C@@H]1CCC[C@@H]1Nc1nc(Nc2cnn(C3CCNCC3)c2)ncc1Cl.NC(=O)[C@H]1CCC[C@H]1Nc1nc(Nc2cnn(C3CCNCC3)c2)ncc1Cl (mixture of isomers) [Example 136]
Result: 6.00 to 7.00

====

# measured on: KDR (Homo sapiens, UniProt P35968)
# method: KDR cellular assay (KDR receptor phosphorylation ELISA)
# condition: KDR transfected 3T3 (embryonic mouse) cells, VEGF stimulated; read-out: IC50 inhibition of KDR phosphorylation
# Sequence (P35968 20-1356): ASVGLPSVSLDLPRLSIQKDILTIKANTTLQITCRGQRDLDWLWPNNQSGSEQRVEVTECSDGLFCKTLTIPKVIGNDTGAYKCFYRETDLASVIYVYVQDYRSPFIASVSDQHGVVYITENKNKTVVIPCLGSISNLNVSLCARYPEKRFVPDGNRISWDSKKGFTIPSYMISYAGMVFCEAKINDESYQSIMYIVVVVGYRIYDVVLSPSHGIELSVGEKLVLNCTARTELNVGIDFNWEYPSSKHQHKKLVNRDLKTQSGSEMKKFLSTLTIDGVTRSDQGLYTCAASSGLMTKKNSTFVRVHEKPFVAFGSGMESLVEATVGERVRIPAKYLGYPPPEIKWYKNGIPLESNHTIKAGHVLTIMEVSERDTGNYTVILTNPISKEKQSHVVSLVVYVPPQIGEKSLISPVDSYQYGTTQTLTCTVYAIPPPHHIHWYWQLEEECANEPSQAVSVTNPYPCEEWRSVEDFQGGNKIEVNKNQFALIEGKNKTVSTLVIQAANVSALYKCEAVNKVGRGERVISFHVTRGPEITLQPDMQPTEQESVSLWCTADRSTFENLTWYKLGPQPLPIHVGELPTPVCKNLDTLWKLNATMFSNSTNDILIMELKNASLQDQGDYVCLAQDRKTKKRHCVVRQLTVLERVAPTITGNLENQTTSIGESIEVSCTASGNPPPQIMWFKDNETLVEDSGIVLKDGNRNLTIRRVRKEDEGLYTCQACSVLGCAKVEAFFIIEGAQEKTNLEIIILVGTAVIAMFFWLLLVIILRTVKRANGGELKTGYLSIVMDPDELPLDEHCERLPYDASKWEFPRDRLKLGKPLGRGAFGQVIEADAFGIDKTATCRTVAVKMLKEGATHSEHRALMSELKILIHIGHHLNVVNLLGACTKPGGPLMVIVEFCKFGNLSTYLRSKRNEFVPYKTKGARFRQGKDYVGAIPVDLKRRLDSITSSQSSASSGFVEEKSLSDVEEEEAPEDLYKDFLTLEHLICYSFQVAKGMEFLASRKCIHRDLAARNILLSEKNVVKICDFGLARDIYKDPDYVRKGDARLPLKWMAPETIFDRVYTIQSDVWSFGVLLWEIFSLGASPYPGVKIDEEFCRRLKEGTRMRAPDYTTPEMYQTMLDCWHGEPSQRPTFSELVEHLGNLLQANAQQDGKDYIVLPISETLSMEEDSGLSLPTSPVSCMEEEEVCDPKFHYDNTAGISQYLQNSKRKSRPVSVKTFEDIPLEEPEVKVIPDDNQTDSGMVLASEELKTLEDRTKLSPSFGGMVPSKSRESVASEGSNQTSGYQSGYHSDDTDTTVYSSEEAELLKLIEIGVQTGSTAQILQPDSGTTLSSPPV
endpoint name: IC50

CCn1cc(Nc2ncc(C(F)(F)F)c(N[C@@H]3[C@H](C(N)=O)[C@H]4C=C[C@@H]3C4)n2)cn1.CCn1cc(Nc2ncc(C(F)(F)F)c(N[C@H]3[C@@H](C(N)=O)[C@@H]4C=C[C@H]3C4)n2)cn1 (mixture of isomers) [Example 22] ... < 100 nM

Task: Fill in IC50 for record COCCOCCn1cc(Nc2ncc(Br)c(N[C@H]3[C@@H](C(N)=O)[C@@H]4C=C[C@H]3C4)n2)cn1 [Example 110]
Result: < 100 nM

Task: Fill in IC50 for record NC(=O)[C@@H]1[C@H](Nc2nc(Nc3cnn(CCc4ccccc4)c3)ncc2Cl)[C@H]2C=C[C@@H]1C2 [Example 143]
Result: < 100 nM

Task: Fill in IC50 for record NC(=O)[C@@H]1[C@H](Nc2nc(Nc3cnn(C4CCC4)c3)ncc2Cl)[C@H]2C=C[C@@H]1C2 [Example 118]
Result: < 100 nM

Task: Fill in IC50 for record CCn1cc(Nc2ncc(Cl)c(N[C@H]3[C@@H](C(N)=O)C[C@H]4C[C@@H]3C4(C)C)n2)cn1 [Example 166]
Result: 100 to 1000 nM
